Taken from patent US10363239B2.

Test system: mu opiate receptor (MOR)
TEST: MOR agonist activity using [35S]GTPγS binding assay in striatal membranes
Assay type: biochemical
EXPERIMENTAL CONDITIONS: Series C-1; 0.1 μM compound; [35S]GTPγS binding to Gαo, striatal membranes
OBSERVABLE: Concentration of FLNA-Binding Compound as Agonist 0.1 μM (%)
Report only the number, with the unit % understood.

{"columns": ["MOLECULE", "TARGET OR SYSTEM", "EXPERIMENTAL VALUE"],
 "data": [
  ["COc1ccc(S(=O)(=O)N2CCC3(CC2)OCCN3S(=O)(=O)c2ccc(C(C)=O)cc2)cc1 [Compound C0048]", "mu opiate receptor (MOR)", 209.1],
  ["COc1ccc(S(=O)(=O)N2CCOC23CCN(S(=O)(=O)c2ccc(C(C)=O)cc2)CC3)cc1 [Compound C0047]", "mu opiate receptor (MOR)", 142.2],
  ["COc1ccc(NC(=O)N2CCC3(CC2)OCCN3S(=O)(=O)c2ccc(OC)cc2)cc1 [Compound C0041]", "mu opiate receptor (MOR)", 186.1]
]}

Which Concentration of FLNA-Binding Compound as Agonist 0.1 μM is reported for this molecule? O=S(=O)(c1ccc(F)c(F)c1)N1CCC2(CC1)OCCN2S(=O)(=O)c1ccc(F)c(F)c1 [Compound C0072]
172.7
